assay details: Acute toxicity test, i.v. (LD50)
recorded conditions: rat, in vivo, iv, rats
quantity name: LD50
Mention the unit after the number when you answer.

Ask: Find the recorded LD50 belonging to CCOC(=O)[C@@H]1O[C@H]1C(=O)N[C@@H](CC(C)C)C(=O)N1CCN(Cc2ccc(OC)c(OC)c2OC)CC1 [NCO-700] and report it.
Result: 317 mg/kg
